Where these numbers come from: PubChem BioAssay (NCI)

test: NCI Yeast Anticancer Drug Screen. Data for the mec2-1 strain (AID 157); conditions: S. cerevisiae mec2-1 strain, at 50.0 µM
About 79,000 compounds went through this panel and 15% of them were active in at least one assay; those are over-represented in the sample as a whole. Calls of active or inactive are those of the source. Rule as the data show it: active = growth inhibition above about 70%; inactive = the rest.
Select the correct class. Options are active, inactive and nothing else.

Answered cases to consult:
compound	category
CC(=O)c1ccccc1NCC(=O)Nn1cnc2ccc(S(=O)(=O)Nc3ccccc3C(C)=O)cc2c1=O	inactive
O=C1NCCS(=O)(=O)N2CCC[C@@H]12	inactive

Q: Lab log entry: `NNC(=O)c1ccc(-c2ccc[nH]2)[nH]1` — outcome as called in the assay?
A: inactive

Q: Lab log entry: `CCCOC(=O)O[C@H]1CC[C@@]2(C)C(=CC[C@H]3[C@@H]4CC[C@H]([C@H](C)CCCC(C)C)[C@@]4(C)CC[C@@H]32)C1` — outcome as called in the assay?
A: inactive

Q: Lab log entry: `C/C(=N\NC(=S)Nc1ccc(S(=O)(=O)O)cc1)c1ccccn1` — outcome as called in the assay?
A: inactive

Q: Lab log entry: [N-]=[N+]=NC(c1ccccc1)S(=O)c1ccccc1 (stereo not given) — outcome as called in the assay?
A: active

Q: Lab log entry: `Cc1cc(C#N)c[n+](C)c1` — outcome as called in the assay?
A: inactive

Q: Lab log entry: `CN(C)CCCSc1nc2ccccc2[nH]1` — outcome as called in the assay?
A: inactive

Q: Lab log entry: `CCOc1ccc(NC(=O)C(=O)CC(=O)c2sc(NNC(C)=O)nc2C)cc1` — outcome as called in the assay?
A: inactive

Q: Lab log entry: `O=C(CN1CCC(O)(c2ccc(F)cc2)CC1)N1CCN(C/C=C/c2ccccc2)CC1` — outcome as called in the assay?
A: inactive

* * *

Quick reference: growth inhibition of the listed items.
test: NCI Yeast Anticancer Drug Screen. Data for the mlh1 rad18 strain (AID 175); settings: S. cerevisiae mlh1 rad18 strain growth inhibition; at 50.0 µM; active compounds read high
The panel holds about 79,000 compounds, 15% with a hit somewhere; the sample as a whole holds those more often.
Number only, in %; omit the unit.

Below: 3 compounds and their reported growth inhibition.
compound	growth inhibition, %
O=C(O)c1ccc(O)cc1	21.9
COc1ccc(Cc2ccccc2C(=O)c2ccc(OC)cc2)cc1	-14.8
CC(=O)OC1C/C(C)=C/CCC(C)/C=C/C2(C)CCC(C(C)(C)O)C12 (centres undefined)	17.6

// growth inhibition lookup, compound = `NCCCCN(CCCN)Cc1ccccc1` , result: -58.9

* * *

assay: NCI Yeast Anticancer Drug Screen. Data for the mec2-1 strain (AID 157); settings: S. cerevisiae mec2-1 strain, at 50.0 µM, active compounds read high
Compounds without any hit were thinned out: in the full panel of roughly 79,000, 15% have a hit.
metric_name: growth inhibition (%)
Number only, in %; omit the unit.

Below: 4 compounds and their reported growth inhibition.
Cc1nn(C(=O)CC(=O)Nc2ccccc2Cl)c(C)c1N=Nc1ccccc1Cl 1.8
N=C(N)c1cc(Cl)c(OCc2ccccc2)c(Cl)c1 -12.7
CCN=C(c1ccccc1)N(O)c1ccccc1 9.2
COc1ccc(N(C(=O)Nc2ccc(Cl)c(Cl)c2)c2ccccc2)cc1 -28.4

Now for another entry.
// growth inhibition lookup, compound = `CCCCC(O)(CC)CC` , result: -23.9
